Please provide measured inhibition for the entries that follow.
# test-details: inhibitors of E-selectin induction by TNFa, primary screen, imaging, HUVEC, immunofluorescence, MLSMR starter and 10KST1 sets (AID 487);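 note: signal is fraction of cell area covered by stained E-selectin grains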
# experimental-parameters: HUVEC TNFalpha-induced E-selectin immunofluorescence imaging, at 2 µM; stronger effect = higher value
The source made the active and inactive calls.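 Rule for the calls: active = visually confirmed hit in the image check and inhibition above 20%; inconclusive = visually confirmed hit but inhibition not above 20%; inactive = no visual hit in the image check.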

For orientation, consider the following solved cases.
CCc1cc2c(=O)c(-c3cscn3)coc2cc1O | -99% (inactive)
Cc1c(N2C(=O)SC(CC(=O)O)C2=O)c(=O)n(-c2ccccc2)n1C (stereo unspecified) | -80.6% (inactive)
O/N=C/c1ccc(OCC(O)COc2ccc(/C=N/O)cc2)cc1 | -37.7% (inactive)

Could I get inhibition for every one of these entries?
1. COc1cc(C2C(C#N)=C(N)Oc3cc(C)n(CCc4ccccc4)c(=O)c32)cc2c1OCO2 (stereo unspecified)
2. N#CC12CCCCC1CC1CCCCC1(C#N)N2Cc1ccccn1 (stereo unspecified)
3. CCOC(=O)CNC(=O)Nc1ccccc1C(=O)OC
4. COc1ccc(-c2nc3n(c2Br)CCC3)cc1
5. CCOC(=O)c1c(-c2cccs2)csc1NC(=O)CCCC(=O)O
6. O=C(Nc1ncn[nH]1)c1c(Cl)ccc(Cl)c1Cl

Data returned:
["-42.5% (inactive)", "-22.3% (inactive)", "15.4% (inactive)", "-22.2% (inactive)", "-22.1% (inactive)", "20% (inactive)"]

Could I get inhibition for every one of these entries?
1. COc1ccc(Nc2nc(Nc3ccc(OC)cc3)nc(-n3[nH]c(=O)c(C)c3C)n2)cc1
2. c1ccc(SCc2nc3ccccc3[nH]2)nc1

Data returned:
1. -17.7% (inactive)
2. -65.1% (inactive)

* * *

# test-details: inhibitors of Sendai virus-induced IRF3 signaling, primary screen, TLR/RLR signaling modifier project, cell-based, Sendai virus stimulus, luciferase, 10K MLSCN set (AID 602276);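 note: firefly luciferase from ISG56 promoter only with Renilla not read in this screen; 0% = Sendai virus plus DMSO and 100% = medium plus DMSO without virus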
# experimental-parameters: HEK293 RL24 IRF3 luciferase reporter, at 10 µM
Activity calls are given as the source filed them.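 The calls were made as follows: active = inhibition at or above 50% at 10 µM; inactive = inhibition below 50%.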
# valid calls are 1 (yes) (active), 0 (no) (inactive); nothing else

Would you please look over these solved cases?
COc1ccc(CCN(C)CCCC(C#N)(c2cc(OC)c(OC)c(OC)c2)C(C)C)cc1OC (centres undefined) | 0 (no)
CN1C2C=C3C(C#N)=C(N)C(C#N)(C#N)[C@@H](c4ccc(Cl)cc4)[C@@H]3C1CC2 (some centres undefined) | 0 (no)

Data request: Assay outcome for CCOC(=O)C1=C(C)NC(C)=C(C(=O)OC)C1c1cccc(Cl)c1Cl (centres undefined) : what was it?
Data returned: 0 (no)

Data request: Assay outcome for CCSc1nc(N)c(C#N)c(-c2ccccc2Cl)c1C#N : what was it?
Data returned: 0 (no)

* * *

Please provide measured fluorescence slope for the entries that follow.
# target-desc: Voltage-gated potassium channel subunit beta-2 (Rattus norvegicus) (UniProt P62483)
# Sequence (P62483 whole entry, looked up): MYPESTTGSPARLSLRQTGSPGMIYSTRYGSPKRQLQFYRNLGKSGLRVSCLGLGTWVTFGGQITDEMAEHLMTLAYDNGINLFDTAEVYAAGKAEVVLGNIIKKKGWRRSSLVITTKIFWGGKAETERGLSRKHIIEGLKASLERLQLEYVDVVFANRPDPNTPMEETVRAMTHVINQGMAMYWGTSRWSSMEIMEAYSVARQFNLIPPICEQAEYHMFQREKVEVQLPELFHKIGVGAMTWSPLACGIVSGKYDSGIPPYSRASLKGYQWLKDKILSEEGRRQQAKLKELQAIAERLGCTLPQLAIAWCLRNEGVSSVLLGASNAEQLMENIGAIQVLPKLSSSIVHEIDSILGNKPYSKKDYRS
# test-details: KvBeta enzyme negative modulators, primary screen, biochemical, NADPH fluorescence (AID 622);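 note: slope of raw intensity against log time taken from 70 to 1610 s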
# experimental-parameters: recombinant KvBeta, 4-cyanobenzaldehyde reduction, at 10 µM, stronger effect = higher value
Calls of active or inactive are those of the source.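 Rule for the calls: active = fluorescence slope higher than the sample average by over 3 SD (cut at about -0.22 in these data, passing the limit was not always enough); inactive = the rest.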

Cn1c(N2CCOCC2)nc2c1c(=O)n(Cc1ccc(Cl)c(Cl)c1)c(=O)n2C | -0.474 (inactive)

Could I get fluorescence slope for every one of these entries?
1. CCOC(=O)C1=C[C@]2(CC)CCCN3CCc4c(n1c1ccccc41)[C@@H]32
2. Cc1nc2ccccc2cc1O
3. O=C(O)CCc1cc(I)c(Oc2ccc(O)c(I)c2)c(I)c1
4. Cc1cc2c(c(=O)n1CC1CCCO1)C(c1ccc3c(c1)OCO3)C(C#N)=C(N)O2 (configuration not stated)
5. C=CCc1c(C)nc(SCCC)[nH]c1=O
6. COn1c(=S)[nH]c2ccccc2c1=O
7. Nc1ccc(S(=O)(=O)NC(=O)c2ccccc2)cc1
8. Cc1nc(SC2C=CS(=O)(=O)C2)n[nH]1 (configuration not stated)

Data returned:
["-0.443 (inactive)", "-0.392 (inactive)", "-0.522 (inactive)", "-0.369 (inactive)", "-0.486 (inactive)", "-0.496 (inactive)", "-0.517 (inactive)", "-0.482 (inactive)"]

Could I get fluorescence slope for every one of these entries?
1. COc1cc(OC)cc(C(=O)N2CCC(N3CCN(c4ccccc4)CC3)CC2)c1
2. Cc1nc(Nc2ncc3c(n2)CCCC3=O)nc2ccccc12

Data returned:
-0.342 (inactive)
-0.403 (inactive)

Looking up CC1(C)Cc2c(C#N)c(SCCC#N)nc(N3CCOCC3)c2CS1 , I see its fluorescence slope listed as -0.343 (inactive)

* * *

# target-desc: Voltage-gated potassium channel subunit beta-2 (Rattus norvegicus) (UniProt P62483)
# test-details: KvBeta positive modulators, primary screen, biochemical, NADPH fluorescence (AID 623);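 note: fluorescence intensity change per second fitted from 20 to 320 s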
# experimental-parameters: Recombinant KvBeta, NADPH fluorescence decrease slope, 10 min; at 10 µM; stronger effect = lower value
Please provide measured NADPH fluorescence slope for the entries that follow.
Answers are plain numbers.

For orientation, consider the following solved cases.
CC(=O)NCCCCCCNC(C)=O | -5.8e-05
CC1(C)CC(N(Cc2ccco2)C(=O)Cc2ccccc2)CCO1 (configuration not stated) | -3.2e-05
O=C(O)c1ccccc1S | -8.2e-05
C[C@]12CC[C@H]3[C@@H](CCC4=CC(=O)CC[C@@]43C)[C@@H]1CC[C@@H]2C(=O)CO | -1e-05
Cc1nc2n[nH]c(N)c2c2c1COC(C)(C)C2 | -0.000106
Cc1ccccc1C(OCCN(C)C)c1ccccc1 (configuration not stated) | -2.2e-05
C=CCn1c(=S)[nH]c2nc3c(cc2c1=O)COC(C)(C)C3 | -0.00014
Cc1nc(SCC(=O)c2ccccc2)c(C#N)c(-c2ccco2)c1C(=O)NCc1ccco1 | -0.000131

Could I get NADPH fluorescence slope for every one of these entries?
1. O=S(=O)(c1ccc2ccccc2c1)N(CC(O)CN1CCOCC1)c1ccccc1 (configuration not stated)
2. Cc1cc2c(c(=O)n1Cc1cccnc1)C(c1ccccc1)C(C#N)=C(N)O2 (configuration not stated)
3. CCN(CC)CCCn1c(C)cc2c(c1=O)C(c1ccccc1)C(C#N)=C(N)O2 (configuration not stated)
4. c1ccc(Cc2nn[nH]n2)cc1

Data returned:
1. -3.3e-05
2. -2.7e-05
3. -3.1e-05
4. -5.4e-05

* * *

Please provide measured z-score for the entries that follow.
# test-details: DUSP6 inhibitors restoring Erk phosphorylation by chemical complementation, primary imaging in DUSP6-transfected HeLa (AID 609)
# experimental-parameters: HeLa MKP-3 transfected, phospho-Erk imaging KS statistic; measured here: cell density z-score; at 10 µM; cells stimulated with TPA for 15 min

CC1(C)CC(=O)c2cc(C(=O)N3CCCC(C)(C)C3)c(=O)n(-c3ccccc3)c2C1 | 0.578

Could I get z-score for every one of these entries?
1. Cc1cc(=O)oc(C)c1C(=O)NCCN1CCOCC1
2. CC(=O)NC1(C(F)(F)F)C(=O)Nc2c1c(=O)n(C)c(=O)n2C (stereo unspecified)
3. CCC1(C)Cc2ccccc2-c2nc(NCCO)n(-c3ccccc3)c(=O)c21 (stereo unspecified)
4. O=C(c1ccc(F)cc1)N1CCC(N2CCCCCC2)CC1

Data returned:
1. -0.82
2. 0.582
3. -0.977
4. -0.0132

Looking up CC(=O)OCC(=O)[C@@]1(O)CC[C@H]2[C@@H]3CCC4=CC(=O)CC[C@]4(C)[C@H]3C(=O)C[C@@]21C , I see its z-score listed as -1.29

* * *

# test-details: DUSP6 inhibitors restoring Erk phosphorylation by chemical complementation, primary imaging in DUSP6-transfected HeLa (AID 609)
# experimental-parameters: HeLa MKP-3 transfected, phospho-Erk imaging KS statistic; measured here: nuclear c-Myc green intensity z-score; at 10 µM; cells stimulated with TPA for 15 min
Class t: z-score at least -0.6. Class f: z-score below -0.6.

Would you please look over these solved cases?
Cn1ncc(N=Cc2ccccc2O)c1C(=O)Nc1ccccc1 | t
CN(C)c1nc2n(c(=O)n1)C(C#N)CS2 (configuration not stated) | f
OC(CCCN1CCC(O)(c2ccc(Cl)cc2)CC1)c1ccc(F)cc1 (configuration not stated) | t
N=c1c(C(=O)NCc2ccccc2)cc2c(=O)n3ccccc3nc2n1Cc1ccco1 | t
Cc1ccc(SCc2nnc(N)s2)cc1 | t

Data request: In plain terms: is recorded z-score at least -0.6 for Cc1c(CCC#N)c(N2CCN(C3CCCCC3)CC2)n2c(nc3ccccc32)c1C#N ?
Data returned: t

Data request: In plain terms: is recorded z-score at least -0.6 for CN1C2C=C3C(C#N)=C(N)C(C#N)(C#N)[C@@H](c4ccsc4)[C@@H]3C1CC2 (some centres not stated) ?
Data returned: f

Data request: In plain terms: is recorded z-score at least -0.6 for CC(=O)Nn1cnc2c(c1=O)C1(CCCC1)Cc1ccccc1-2 ?
Data returned: t
